- Test system: Escherichia coli
- assay-method-text: Antimicrobial activity against Escherichia coli; No inhibition at 64 ug/mL
- Assay type: functional
Calls of active or inactive are those of the source. No cut-off for these calls is given here.
parameter-measured: Activity

substance-smiles: COc1ccc(CN2C=Cc3cc(OC)c(OC)c4nccc2c34)cc1.Cl
result: inactive

substance-smiles: COc1cc(CN2C=Cc3cc(OC)c(OC)c4nccc2c34)cc(OC)c1OC.Cl
result: inactive

substance-smiles: COc1ccc(C[n+]2ccc3c4c(cc(OC)c(OC)c42)C=CN3Cc2cc(OC)c(OC)c(OC)c2)cc1O.[Br-]
result: inactive

substance-smiles: COc1cc2c3c(cc[n+](Cc4ccccc4)c3c1OC)N(Cc1ccccc1)C=C2.[Cl-]
result: 8 µg/mL

substance-smiles: COc1cc2c3c(ccnc3c1OC)N(Cc1ccccc1)C=C2.Cl
result: inactive
